Molecular target: T1, Human TfR-AVI-His (control) (human, UniProt P02786 89-760)
T1 construct: control protein; also called Avi-His-tagged human TfR; human transferrin receptor
T1 sequence (P02786 89-760 limits assumed): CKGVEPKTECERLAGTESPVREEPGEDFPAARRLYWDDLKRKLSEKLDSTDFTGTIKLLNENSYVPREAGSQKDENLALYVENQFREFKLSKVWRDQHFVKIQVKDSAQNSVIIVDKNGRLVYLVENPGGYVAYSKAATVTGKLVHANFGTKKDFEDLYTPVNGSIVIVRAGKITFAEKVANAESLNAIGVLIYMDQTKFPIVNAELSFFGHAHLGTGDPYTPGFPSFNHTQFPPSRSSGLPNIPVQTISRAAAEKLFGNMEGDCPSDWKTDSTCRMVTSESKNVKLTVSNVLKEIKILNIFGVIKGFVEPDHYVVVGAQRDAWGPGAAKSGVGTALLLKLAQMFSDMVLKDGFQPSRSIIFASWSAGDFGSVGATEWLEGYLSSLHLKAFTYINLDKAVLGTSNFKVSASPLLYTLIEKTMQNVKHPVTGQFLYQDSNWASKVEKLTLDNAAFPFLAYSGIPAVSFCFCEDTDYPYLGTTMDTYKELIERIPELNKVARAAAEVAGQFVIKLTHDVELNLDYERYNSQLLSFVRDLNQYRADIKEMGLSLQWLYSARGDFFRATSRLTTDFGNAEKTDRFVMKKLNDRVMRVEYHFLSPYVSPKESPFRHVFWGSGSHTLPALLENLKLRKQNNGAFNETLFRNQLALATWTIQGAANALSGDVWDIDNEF
Assay: ELISA, hybridoma supernatant
property: OD450
Answer using only a numeral; do not append any unit.

OD450 recorded for this binder, CD98HC.04.022 (antibody, V domains shown, hybridoma IgG) VH: EVQLQQSGAELVKPGASVKLSCTASGFNIKDTFMHWMKQRPEQGLEWIGRIDPANANTRYDPKFQGKATITTDTSSNTAYLQLSSLTSEDTAVYYCARDVYYDVWGAGTTVTVSS VL: DILMTQSPSSMSVSLGDTVTITCHASQGISSNIGWLQQKPGRSFKGLIYHGSNLEDGVPSRFTGSGSGTDYSLTISGLESEDFADYYCVQYAQFPRTFGGGTKLEIQ , is 0.0533

Entry CD98HC.04.010 (antibody, V domains shown, hybridoma IgG) VH: QVQLQQSGAELMKPGASVKISCKATGYTFSTYWIEWVKQRPGHGLEWIGEILPGSGTTTYNEKFKGKATFTADTSSNTAYMQLSSLTSEDSAVYYCARRTVYYRYEGIDYWGQGTTLTVSS VL: QIVLTQSPAIMSASPGEKVTITCSASSSVSYMFWFQQRPGTSPKLWIYTTSNLASGVPARFSGSGSGTSYSLTISRMEAEDAATYYCQQKNNYPFTFGSGTKLEIK , OD450 reported as 0.102

OD450 for CD98HC.04.065 (antibody, V domains shown, hybridoma IgG) VH: EVQLQESGPSLVKPSQTLSLTCSVTGDSITSGYWNWIRKFPGNKLEYMGYISYSGRTYYNPSLKSRVSITRDTSKNQYYLQLNSVTTEDTATYYCQRHVIYDYTWFAYWGQGTLVTVSA VL: QIVLTQSPAIMSASPGEKVTISCSASSSVHYMYWFQQKPGSSPKPWIYRTSILASGVPDRFSGSGSGTSYSLTISSMEAEDAATYYCQQYQSYPLTFGAGTKLELK is 0.1
